- EXPERIMENTAL TARGET: UniProt:P15144
- Sequence (P15144 whole entry, species assumed): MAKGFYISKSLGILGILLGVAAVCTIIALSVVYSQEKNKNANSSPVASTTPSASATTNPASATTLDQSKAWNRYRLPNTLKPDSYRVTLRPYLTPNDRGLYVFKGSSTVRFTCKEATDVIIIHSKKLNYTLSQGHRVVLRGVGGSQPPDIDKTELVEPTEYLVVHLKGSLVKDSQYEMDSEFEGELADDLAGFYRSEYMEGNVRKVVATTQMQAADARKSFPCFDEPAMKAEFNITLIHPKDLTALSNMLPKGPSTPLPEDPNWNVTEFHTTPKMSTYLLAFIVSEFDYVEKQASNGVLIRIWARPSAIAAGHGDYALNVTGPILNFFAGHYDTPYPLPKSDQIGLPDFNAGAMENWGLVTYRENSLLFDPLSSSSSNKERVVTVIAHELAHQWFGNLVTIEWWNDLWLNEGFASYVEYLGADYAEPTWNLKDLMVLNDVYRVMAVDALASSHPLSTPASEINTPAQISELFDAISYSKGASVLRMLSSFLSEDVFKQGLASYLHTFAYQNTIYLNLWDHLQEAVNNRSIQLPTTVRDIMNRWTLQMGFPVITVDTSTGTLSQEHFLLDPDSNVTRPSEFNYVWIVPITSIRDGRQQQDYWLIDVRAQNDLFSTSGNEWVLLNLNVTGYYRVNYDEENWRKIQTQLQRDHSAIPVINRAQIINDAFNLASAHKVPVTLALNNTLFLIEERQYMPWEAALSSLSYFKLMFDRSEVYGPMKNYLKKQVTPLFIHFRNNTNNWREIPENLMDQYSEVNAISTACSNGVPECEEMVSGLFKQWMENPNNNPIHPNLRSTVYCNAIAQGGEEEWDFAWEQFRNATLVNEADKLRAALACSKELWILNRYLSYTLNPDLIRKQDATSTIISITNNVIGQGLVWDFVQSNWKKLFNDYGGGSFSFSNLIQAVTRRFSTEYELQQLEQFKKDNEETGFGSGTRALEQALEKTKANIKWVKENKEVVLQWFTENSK
- EXPERIMENT DESCRIPTION: Inhibition of alanyl aminopeptidase enzymatic activity, fluorogenic substrate (Ala)2-rhodamine 110
- Assay type: biochemical
- TEST SETTINGS: Table 4, unstarred values; read-out: IC50APN
pIC50: −log10 of the molar value.
ENDPOINT LABEL: pIC50

# example entries with known answers
O=C(CCC(=O)Nc1cccc(Cl)c1)N/N=C/c1ccco1 = 4.47
COc1ccc2ccccc2c1-c1cc(C(=O)N/N=C(\C)c2ccco2)[nH]n1 = 4.42
O=C(CNC(=O)c1ccccc1Br)N/N=C/c1ccoc1 = 4.50
O=C(N/N=C/c1ccco1)c1cc(-c2ccc(F)cc2)n[nH]1 = 4.84
O=C(Nc1ccccc1C(=O)N/N=C/c1ccco1)c1ccccc1Cl = 4.46

A. COc1ccc(C(=O)N/N=C/c2ccco2)cc1
B. CCN(CC)c1ccc(/C=C(/NC(=O)c2ccccc2)C(=O)N/N=C/c2cc(I)c(O)c(I)c2)cc1
C. CC(=O)Nc1ccc(C(=O)N/N=C/c2ccco2)cc1
D. CCOc1cc(/C=N/NC(=O)CNC(=O)c2cccc(Cl)c2)ccc1OC(=O)c1cccs1
Place the items in sequence of falling pIC50. // format: requested-order list of labels
B, D, A, C
